Data origin, for the record: patent US8957074B2

Tested on: phosphorylation of pRb at the Ser780 site in JeKo-1 mantle cell lymphoma cells
Experiment: CDK4 cellular assay: ELISA of pRb phosphorylation at Ser780 in JeKo-1 cells
Format: cell-based
Conditions: Homo sapiens; JeKo-1 cells, p-pRb % inhibition adjusted with total pRb levels; read-out: Normalized cellular ppRb inhibition IC50
READOUT NAME: IC50 (nM)
Quick reminder: number only, in nM, skip the unit.

Reference set, count: 4
>>> number("CN(C)C(=O)c1cc2cnc(Nc3ccc(N4CCN5CCCCC5C4=O)cn3)nc2n1C1CCCCC1 (stereo not shown) [Example 100]")
218
>>> number("CN(C)C(=O)c1cc2cnc(Nc3ccc(C(=O)N4C[C@@H]5[C@@H](N)[C@@H]5C4)cn3)nc2n1C1CCCC1 [Example 42]")
241
>>> number("CN(C)C(=O)c1cc2cnc(Nc3ccc(C(=O)N4CC5CC(C4)N(C)C5)cn3)nc2n1C1CCCC1 (stereo not shown) [Example 13]")
145
>>> number("CN(C)C(=O)c1cc2cnc(Nc3ccc(N4C[C@]5(CCCNCC5)OC4=O)cn3)nc2n1C1CCCC1 [Example 106]")
114

Kindly consider the entry below.
Input line: I would be grateful if you could share the reported IC50 for CN(C)C(=O)c1cc2cnc(Nc3ccc(N4CC5(CC4=O)CC4CCC(C5)N4)cn3)nc2n1C1CCCOC1 (stereo not shown) [Example 120] .
Output line: 1030

---

Tested on: phosphorylation of pRb at the Ser780 site in JeKo-1 mantle cell lymphoma cells
Experiment: CDK4 cellular assay: ELISA of pRb phosphorylation at Ser780 in JeKo-1 cells
Format: cell-based
Details: Homo sapiens; JeKo-1 cells, p-pRb % inhibition adjusted with total pRb levels; read-out: Normalized cellular ppRb inhibition IC50
READOUT NAME: IC50 (nM)
Quick reminder: number only, in nM, skip the unit.

Reference set, count: 3
>>> number("CN(C)C(=O)c1cc2cnc(Nc3ccc(C(=O)N4CC5CCC(C4)C5(C)O)cn3)nc2n1C1CCCCCC1 (stereo not shown)")
889
>>> number("Cc1cc(Nc2ncc3cc(C(=O)N(C)C)n(C4CCCC4)c3n2)ncc1C(=O)N1CC2CCC(C1)N2")
60
>>> number("CN(C)C(=O)c1cc2cnc(Nc3ccc(C(=O)N4CC5CC(C4)N(CC(F)(F)F)C5)cn3)nc2n1C1CCCC1 (stereo not shown)")
724

Kindly consider the entry below.
Input line: I would be grateful if you could share the reported IC50 for "CN(C)C(=O)c1cc2cnc(Nc3ccc(C(=O)N4CCC5(CC4)CNC5)cn3)nc2n1C1CCCCCC1" .
Output line: 117

---

Test system: phosphorylation of pRb at the Ser780 site in JeKo-1 mantle cell lymphoma cells
Assay: CDK4 cellular assay: ELISA of pRb phosphorylation at Ser780 in JeKo-1 cells
Assay type: cell-based
Details: Homo sapiens, JeKo-1, JeKo-1 cells, p-pRb % inhibition adjusted with total pRb levels; read-out: Normalized cellular ppRb inhibition IC50
Listed below: IC50 values for each entry.
Quick reminder: number only, in µM, skip the unit.

Reference set, count: 2
>>> number("CN(C)C(=O)c1cc2cnc(Nc3ccc(N4CCN5CCCCC5C4=O)cn3)nc2n1C1CCCC1 (stereo not shown)")
0.618
>>> number("CNC(=O)c1cc2cnc(Nc3ccc(C(=O)N4CC5CCC(C4)N5)cn3)nc2n1C1CCCC1")
6.77

Kindly consider the entry below.
Input line: I would be grateful if you could share the reported IC50 for "CN(C)C(=O)c1cc2cnc(Nc3ccc(C(=O)N4CC5CCC(C4)N5)cn3)nc2n1C1CCN(C2CC2)CC1" .
Output line: 0.47
